pIC50: −log10 of the molar value.
# pIC50 measurements, system: PIK3CG (human)
endpoint: pIC50

>>> endpointresult("CCOc1ncc(-c2cnc(N)nc2N[C@@H](C)c2cc3cccc(Cl)c3c(=O)n2-c2ccccc2)s1")
"> 7.00"
>>> endpointresult("Cc1ncc(-c2cnc(N)nc2N[C@@H](C)c2cc3cccc(Cl)c3c(=O)n2-c2ccccc2)s1")
"> 7.00"
>>> endpointresult("C[C@H](Nc1nc(N)ncc1C(=O)N1CCC1)c1cc2cccc(Cl)c2c(=O)n1-c1ccccc1")
"> 7.00"
>>> endpointresult("Cc1cncc(-c2cccc3cc([C@H](C)Nc4nc(N)ncc4C#N)n(-c4cccc(F)c4)c(=O)c23)c1")
"> 7.00"
>>> endpointresult("COc1cc(-c2cccc3cc([C@H](C)Nc4nc(N)ncc4-c4cc(O)cc(F)c4)n(-c4ccccc4)c(=O)c23)ccn1")
"6.00 to 7.00"
>>> endpointresult("COc1cc(-c2cccc3cc([C@H](C)Nc4nc(N)ncc4-c4ccncc4)n(-c4ccccc4)c(=O)c23)ccn1")
"> 7.00"
>>> endpointresult("COc1ncc(-c2cccc3cc([C@H](C)Nc4nc(N)ncc4C#N)n(C4CC4)c(=O)c23)cn1")
"6.00 to 7.00"
>>> endpointresult("C[C@H](Nc1nc(N)ncc1C#N)c1cc2cccc(-c3ccc(S(C)(=O)=O)cc3)c2c(=O)n1-c1ccccc1")
"> 7.00"
